System: Zika virus NS2B-NS3 protease (unlinked)
Test: Optimization of GU AMC qHTS for Zika virus inhibitors: Unlinked NS2B-NS3 protease assay (AID 1347151); also: nearly all actives have a fitted effect of over 80% in size
Settings: recombinant ZIKV NS2B-NS3 protease, fluorogenic AMC substrate; series mostly up to 52.5 µM
Inconclusive results are not listed. Active and inactive are the calls of the source. Calls follow the shape of the dose curve; as a rule, active = well fitted inhibition curve with a large enough effect; inconclusive = small, poorly fitted or top-dose-only effect; inactive = no such curve, though single readings can be large or run the other way.
One label from this list, please: t = active, f = inactive

- COc1cc2c(CCNC(C)=O)c[nH]c2cc1Cl: f

IN: Just curious, what result did "CN1CC(=O)N/C1=N/C(=O)Nc1cccc(Cl)c1" get here?
OUT: f

IN: Just curious, what result did "O=[N+]([O-])c1ccc(CNc2nc(NCc3cccc(C(F)(F)F)c3)nc3nc[nH]c23)cc1" get here?
OUT: f

IN: Just curious, what result did "C[N+]1(C)CCC(OC(=O)C(c2ccccc2)c2ccccc2)CC1" get here?
OUT: f

IN: Just curious, what result did "N#C/C(=C\c1ccc(-c2cc(Cl)ccc2Cl)o1)C(=O)Nc1cccc2ncccc12" get here?
OUT: t

IN: Just curious, what result did "Cn1c(=O)c(-c2c(Cl)cccc2Cl)cc2cnc(Nc3ccc(N4CCOCC4)cc3)nc21" get here?
OUT: f

IN: Just curious, what result did "Oc1cc(O)cc(/C=C/c2ccc(O)c(O)c2)c1" get here?
OUT: t

IN: Just curious, what result did NC(=S)c1ccc[n+]([C@@H]2O[C@@H](COP(=O)([O-])OP(=O)(O)OC[C@H]3O[C@@H](n4cnc5c(N)ncnc54)[C@H](OP(=O)(O)O)[C@@H]3O)C(O)C2O)c1 (some centres undefined) get here?
OUT: f

IN: Just curious, what result did Cc1cn([C@H]2CC(N=[N+]=[N-])[C@@H](CO)O2)c(=O)[nH]c1=O (some centres undefined) get here?
OUT: f
